target: PDGF-AA (Homo sapiens, UniProt P04085 P04085:87-211); test: filter; +/-12; PBSM, 37 C; comparable to random DNA; details: tags: R&D Systems, E. coli, long form of A-chain; chain copies: 2 (inferred); label: 5'-32P; three-way helix junction
quantity: Kd (nM)
Write the number in nM without appending the unit.

Data point: CACAGGCTACGGCACGTAGAGCATCACCATGATCCTGTGT (ssDNA, 3'-3' linked T at 3' end) [36t] ; Kd = 72

From: patent US20030180744
